# Test system: HOP-62
# experimentSummary: NCI tumour cell line growth inhibition, 48 h
Active and inactive are the calls of the source. No stated cut-off is given here; in the data, active = GI50 up to about 1.1 µM and inactive = higher.
In this section we review reported GI50 values for a set of compounds.

compound	GI50
Cc1cccc(N2C(=O)C3c4[nH]c5ccc(C)cc5c4C4CCC(C(C)(C)C)CC4C3C2=O)c1 (stereo not drawn)	15.8 µM (inactive)
COC(=O)C1Cc2cc3c(cc2C1=O)CCCC3 (stereo not drawn)	48.6 µM (inactive)
O=C(O)c1nn(-c2ccccc2-c2nnc(O)nc2O)c(=O)[nH]c1=O	> 100 µM (inactive)
O=C(OC1C2OC(=O)c3cc(O)c(O)c(O)c3Oc3cc4c(c(O)c3O)-c3c(cc(O)c(O)c3O)C(=O)OCC3OC(O)C(OC(=O)c5cc(O)c(O)c(O)c5Oc5cc6c(c(O)c5O)-c5c(cc(O)c(O)c5O)C(=O)OC1C(COC6=O)OC2O)C(OC(=O)c1cc(O)c(O)c(O)c1)C3OC4=O)c1cc(O)c(O)c(O)c1 (stereo not drawn)	23.4 µM (inactive)
CN1c2ccccc2S(=O)(=O)n2c(COc3ccc(Cl)cc3)nnc21	21.7 µM (inactive)
Nc1ccc(S(=O)(=O)NCCS(=O)(=O)O)cc1	> 100 µM (inactive)
Cc1oc2c(c1C)S(=O)(=O)C(C#N)C(c1ccccc1)N2 (stereo not drawn)	> 100 µM (inactive)
CCOC(=O)CCC(NC(=O)c1ccc(Oc2nc3ccccc3nc2C(=O)OCC)cc1)C(=O)OCC (stereo not drawn)	63 µM (inactive)

* * *

# System: CCRF-CEM
# experimentSummary: NCI tumour cell line growth inhibition, 48 h
Activity calls are given as the source filed them. Cut-off read from the data, not from the text of the source: active = GI50 up to about 1.1 µM and inactive = higher.
Outcome codes: TRUE (active), FALSE (inactive)

> print(dat)
                                    compound    cat
 1  CCCCCCCCCCCCCC(=O)OCC1OC(=O)C(O)C1O (stereo not given)  FALSE
 2  COc1cc([C@@H]2c3cc4c(c(O[C@@H]5O[C@H]6CO[C@@H](C)O[C@H]6[C@H](O)[C@@H]5O)c3C[C@H]3COC(=O)[C@@H]32)OCO4)cc(OC)c1O  FALSE
 3   CN(C)CCNC(=O)c1cccc2c1C(=O)c1ccccc1C2=O  FALSE
 4  COC1CC(N)(c2ccccc2)C(O)C(C)O1 (stereo not given)  FALSE
 5                        Cc1nc(Cl)nc(Cl)c1C  FALSE
 6  COc1cc2c3c(c1OC)-c1c(ccc4c1OCO4)CC3(C#N)N(C(=O)c1ccccc1)CC2 (stereo not given)  FALSE
 7  CC(C)C(NCc1c2ccccc2[n+](C)c2ccccc12)C(=O)O (stereo not given)   TRUE
 8  O=C(O)C1CCCCN1C(=O)c1ccccc1 (stereo not given)  FALSE
 9  CNC(=O)OC1/C(C)=C\C(C)C(O)C(OC)CC(C)CC2=C(OC)C(=O)C=C(C2=O)N(C)C(=O)/C(C)=C/C=C\C1OC (stereo not given)   TRUE
10  O=C(O)CCC(NC(=O)c1ccc(OCc2nc3cc(C(F)(F)F)ccc3nc2-c2ccccc2)cc1)C(=O)O (stereo not given)  FALSE
11   CC(C)n1c2c(c3ccccc3c1=O)C(=O)c1ccccc1-2  FALSE
12         COc1ccc(/C=C(\Cl)c2ccc(OC)cc2)cc1  FALSE
13  CC1=NN(C(=O)c2cc(Cl)cc([N+](=O)[O-])c2)C(=O)C1/N=N/c1ccccc1C(=O)O (stereo not given)  FALSE
14  CC(C)NC(=O)OCc1c(COC(=O)NC(C)C)c(-c2cc[n+](COC(=O)C3CCCCC3)cc2)n2c1CCC2  FALSE
15  COP1(=S)OCC2CCC[C@@H]2O1 (stereo not given in full)  FALSE
16  CC1(C)NC2C(=O)c3c([nH]c4ccccc34)[C@]3(C)CCC1CC23 (stereo not given in full)  FALSE
17  Cc1cccc(O)c1-c1nnc(CCCCCCCCc2nnc(-c3c(C)cccc3O)n2N)n1N   TRUE
18  O=C(O)C1CCc2ccc3ccccc3c2C1c1cccc2ccccc12 (stereo not given)  FALSE
19  COc1ccc(C2C(C#N)=C(S)N(C3OC(COC(C)=O)C(OC(C)=O)C(OC(C)=O)C3OC(C)=O)C(c3ccccc3)=C2C(C)=O)cc1 (stereo not given)  FALSE
20  CC1=C(C(=O)Nc2cc(F)c(F)cc2F)C(c2ccc(N(C)C)cc2)C(C(=O)Nc2cc(F)c(F)cc2F)=C(C)N1  FALSE
